Recorded values, source patent US20240116985A1.

Target: full-length beta-Catenin (Uniprot ID P35222) (Homo sapiens (Human)) (UniProt P35222)
Sequence (P35222 2-781 limits assumed): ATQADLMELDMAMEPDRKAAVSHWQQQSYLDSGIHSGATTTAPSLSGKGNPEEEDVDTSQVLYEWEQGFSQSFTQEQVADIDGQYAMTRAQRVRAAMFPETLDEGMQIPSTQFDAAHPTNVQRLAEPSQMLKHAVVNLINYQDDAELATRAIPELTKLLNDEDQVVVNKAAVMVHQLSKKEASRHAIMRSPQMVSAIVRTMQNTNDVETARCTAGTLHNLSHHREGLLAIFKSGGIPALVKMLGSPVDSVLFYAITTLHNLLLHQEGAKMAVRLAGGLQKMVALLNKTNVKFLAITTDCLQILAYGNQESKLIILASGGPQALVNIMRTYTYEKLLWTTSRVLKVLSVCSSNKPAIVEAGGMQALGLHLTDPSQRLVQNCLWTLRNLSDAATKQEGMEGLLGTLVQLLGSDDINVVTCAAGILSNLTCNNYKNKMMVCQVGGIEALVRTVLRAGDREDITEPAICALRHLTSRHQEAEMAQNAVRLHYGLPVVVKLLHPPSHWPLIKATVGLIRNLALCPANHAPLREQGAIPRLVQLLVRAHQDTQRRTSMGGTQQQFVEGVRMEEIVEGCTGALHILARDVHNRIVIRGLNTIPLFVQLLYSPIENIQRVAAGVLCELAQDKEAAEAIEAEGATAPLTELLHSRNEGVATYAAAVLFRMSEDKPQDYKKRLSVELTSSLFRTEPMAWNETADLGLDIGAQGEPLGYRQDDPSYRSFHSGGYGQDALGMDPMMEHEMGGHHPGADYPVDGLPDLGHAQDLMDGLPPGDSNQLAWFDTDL
Assay: fluorescence polarization competition, full-length beta-catenin with 5FAM-TCF4(10-53) probe as competitor
Starred links: 1 amine or outer side, 2 acyl side, 3 side chain; linkers in the order of their positions; H or OH if unused. Positions of bridges follow the written chain, without caps; N, C: chain ends. Non-standard residues stand in square brackets, D forms with d. Primed or numbered codes have the meaning given here. B5(4) = 2,2-bis(4-pentenyl)glycine = 2-amino-2-(pent-4-en-1-yl)hept-6-enoic acid (stitching residue), C=CCCCC(CCCC=C)(N[*:1])C(=O)[*:2]; B5(19) = 2-amino-2-(pent-4-en-1-yl)hept-6-enoic acid (bis(4-pentenyl)glycine), C=CCCCC(CCCC=C)(N[*:1])C(=O)[*:2]; SbGlu = 3-aminopentanedioic acid, R/S prefix not explained; Bta = N[C@@H](Cc1csc2ccccc12)C(=O)O; αAllylPro = C=CC[C@@]1(C(=O)O)CCCN1; tBuAla = CC(C)(C)C[C@H](N)C(=O)O; S8 = C=CCCCCCC[C@](C)(N)C(=O)O; Nle = CCCC[C@H](N)C(=O)O
QUANTITY NAME: log10 EC50 (log10 of the value in nM)
Would you kindly interpret these values as log10 of EC50 expressed in nM?

Worked examples follow.
In [3]: df
Out[3]:
                                     binder  measured_result
0  Ac-[αAllylPro]DI[B5(4)]DE[Nle]AFQ[S8]F[Bta]Q-NH2 (staple 1-4, 4-11) [I-656]             1.86
1  Ac-[αAllylPro]DI[B5(4)]DEA[Nle]FQ[S8]F[Bta]Q-NH2 (staple 1-4, 4-11) [I-667]             2.77

// field: log10 EC50; key: Ac-[αAllylPro]D[tBuAla][B5(4)]DEAAFN[S8]F[Bta]Q-NH2 (staple 1-4, 4-11) [I-677] ; value = 1.34

Item: Ac-[αAllylPro]DI[B5(4)][SbGlu]EAAFQ[S8]F[Bta]Q-NH2 (staple 1-4, 4-11) [I-676] | log10 EC50: 3.70

Lab note: Ac-[αAllylPro]DI[B5(19)]DEA[Nle]FQ[S8]F[Bta]Q-NH2 (staple 1-4, 4-11) [I-666] gave log10 EC50 of 2.80
